- Test system: T24 bladder cancer cells
- test.details: Cancer cell survival (CellTiter-Glo), T24
- Type: cell-based
- test.context: Homo sapiens, T-24, 318 nM, 72 h, read-out: Cell survival at given concentration
experimental.endpoint: viability at 0.318 µM (%)

• Oc1cc(O)c2c(c1)O[C@H](c1cc(O)c(O)c(O)c1)[C@H](O)C2 [EGC, epigallocatechin] = 103
• O=C[C@H](O)[C@@H](O)[C@@H](O)CO = 103
• O=c1c(O)c(-c2cc(O)c(O)c(O)c2)oc2cc(O)cc(O)c12 = 98
• O=c1cc(-c2ccc(O)c(O)c2)oc2cc(O)cc(O)c12 = 102
• O=c1cc(-c2ccc(O)cc2)oc2cc(O)cc(O)c12 = 100
• Oc1ccc(C=Cc2cc(O)cc(O)c2)cc1 = 102

====

- Tested on: T24 bladder cancer cells
- test.details: Cancer cell survival (CellTiter-Glo), T24
- Assay type: cell-based
- test.context: Homo sapiens, T-24, 1 μM, 72 h, read-out: Cell survival at given concentration
- Experimental: The cells were prepared as follows. Cells were harvested during logarithmic growth, counted, and adjusted to 4.44×10^4 cells/mL with culture media. 90 μL of suspended cells were added to wells of 96-well plates for a final cell count of 4×10^3 cells/well. […] The test compounds were assayed as follows. […] Plates were incubated at room temperature for 20 min and then each well's luminescence was measured. The surviving percentage of cells was determined as: […]
Recorded viability at 1 µM values for a group of compounds are listed next.
experimental.endpoint: viability at 1 µM (%)

* Oc1ccc(C=Cc2cc(O)cc(O)c2)cc1 [resveratrol] | 100
* O=c1c(O)c(-c2cc(O)c(O)c(O)c2)oc2cc(O)cc(O)c12 [myricetin] | 106
* Oc1cc(O)c2c(c1)O[C@H](c1cc(O)c(O)c(O)c1)[C@H](O)C2 [EGC, epigallocatechin] | 103
* O=c1cc(-c2ccc(O)c(O)c2)oc2cc(O)cc(O)c12 [luteolin] | 103
* O=c1cc(-c2ccc(O)cc2)oc2cc(O)cc(O)c12 [apigenin] | 102
* O=C[C@H](O)[C@@H](O)[C@@H](O)CO [L-arabinose] | 100

====

- Tested on: HCT 116 colorectal cancer cells
- test.details: Cancer cell survival (CellTiter-Glo), HCT 116
- Format: cell-based
- test.context: HCT 116 cells; 10 mM; 72 h
experimental.endpoint: Cell survival at given concentration

* CC(O)CCO (stereo not shown) | 0.95
* CC(O)CC(=O)O (stereo not drawn) [beta-hydroxybutyrate] | 0.90
* CCCCC(=O)O [valerate] | 0.17
* CC(=O)O [acetate] | 0.84

====

- System: MCF7 breast cancer cells
- test.details: Cancer cell survival (CellTiter-Glo), MCF7
- Assay type: cell-based
- test.context: Homo sapiens, 100 μM, 72 h, read-out: Cell survival at given concentration
Listing of recorded viability at 100 µM by entry.
experimental.endpoint: viability at 100 µM (%)

* O=c1cc(-c2ccc(O)cc2)oc2cc(O)cc(O)c12 | 82
* Oc1ccc(C=Cc2cc(O)cc(O)c2)cc1 | 85
* O=C[C@H](O)[C@@H](O)[C@@H](O)CO | 99
* O=c1cc(-c2ccc(O)c(O)c2)oc2cc(O)cc(O)c12 | 31
* Oc1cc(O)c2c(c1)O[C@H](c1cc(O)c(O)c(O)c1)[C@H](O)C2 [EGC, epigallocatechin] | 90
* O=c1c(O)c(-c2cc(O)c(O)c(O)c2)oc2cc(O)cc(O)c12 | 94

====

- Tested on: A549 lung cancer cells
- test.details: Cancer cell survival (CellTiter-Glo), A549
- Assay type: cell-based
- test.context: 317 μM, 72 h
experimental.endpoint: Cell survival at given concentration

• CC(=O)O [acetate] = 1.02
• CC(O)CCO (stereo not shown) [butanediol] = 1.02
• CCCCC(=O)O [valerate] = 1.02
• CC(O)CC(=O)O (stereo not drawn) [beta-hydroxybutyrate] = 1.01

====

- test.details: Human Regulatory T Cell Differentiation Assay
- Type: cell-based
- test.context: human, primary naïve CD4+ T cells isolated from PBMCs, 100 uM, read-out: Cell viability % DMSO
experimental.endpoint: viability at 6 days, 100 µM

- CN(CCOc1ccc(CC2SC(=O)NC2=O)cc1)c1ccccn1 (stereo not drawn) [Rosiglitazone]: < 90%
- C[C@@H](O)CCO [(R)-1,3-Butanediol]: 90 to 110%
- CC[C@H]1[C@@H](O)[C@@H]2[C@H](CC[C@]3(C)[C@@H]([C@H](C)CCC(=O)O)CC[C@@H]23)[C@@]2(C)CC[C@@H](O)C[C@@H]12 [Obeticholic acid]: 90 to 110%

====

- Tested on: A-431 skin cancer cells
- test.details: Cancer cell survival (CellTiter-Glo), A-431
- Format: cell-based
- Design: unit not given here
- test.context: A-431 cells; 100 μM; 72 h; Table 9.2
Listing: Cell survival at given concentration of selected compounds
experimental.endpoint: Cell survival at given concentration

• CC(O)CC(=O)O (stereo not drawn) [beta-hydroxybutyrate] = 1.03
• CC(=O)O [acetate] = 1.05
• CCCCC(=O)O [valerate] = 1.02
• CC(O)CCO (stereo not shown) = 1.03

====

- Test system: PC-3 prostate cancer cells
- test.details: Cancer cell survival (CellTiter-Glo), PC-3
- Type: cell-based
- test.context: PC-3 cells; 1 μM; 72 h; Table 8.2
experimental.endpoint: Cell survival at given concentration

• CC(O)CC(=O)O (stereo not drawn) [beta-hydroxybutyrate] = 1.01
• CC(O)CCO (stereo not shown) = 1.00
• CC(=O)O [acetate] = 1.05
• CCCCC(=O)O [valerate] = 1.00

====

- System: HCT 116 colorectal cancer cells
- test.details: Cancer cell survival (CellTiter-Glo), HCT 116
- Format: cell-based
- test.context: HCT 116 cells; 72 h; Table 6.1
The compounds listed here are annotated with their IC50.
experimental.endpoint: IC50 (µM)

• O=C(O[C@@H]1Cc2c(O)cc(O)cc2O[C@@H]1c1cc(O)c(O)c(O)c1)c1cc(O)c(O)c(O)c1 [EGCG, epigallocatechin gallate] = 46.3
• O=c1oc2cc(O)ccc2c2cc(O)c(O)cc12 = 25.5

====

- Tested on: PC-3 prostate cancer cells
- test.details: Cancer cell survival (CellTiter-Glo), PC-3
- Assay type: cell-based
- test.context: PC-3 cells; 3 mM; 72 h
Below is a list of entries, each paired with its recorded Cell survival at given concentration value.
experimental.endpoint: Cell survival at given concentration

- CC(=O)O [acetate]: 1.00
- CCCCC(=O)O [valerate]: 0.84
- CC(O)CC(=O)O (stereo not drawn) [beta-hydroxybutyrate]: 1.00
- CC(O)CCO (stereo not shown) [butanediol]: 0.98

====

- Tested on: PC-3 prostate cancer cells
- test.details: Cancer cell survival (CellTiter-Glo), PC-3
- Format: cell-based
- test.context: PC-3 cells; 3 μM; 72 h; Table 8.2
- Procedure: The cells were prepared as follows. Cells were harvested during logarithmic growth, counted, and adjusted to 4.44×10^4 cells/mL with culture media. 90 μL of suspended cells were added to wells of 96-well plates for a final cell count of 4×10^3 cells/well. […] The test compounds were assayed as follows. […] Plates were incubated at room temperature for 20 min and then each well's luminescence was measured. The surviving percentage of cells was determined as: […]
experimental.endpoint: Cell survival at given concentration

* CC(O)CCO (stereo not shown) | 0.99
* CCCCC(=O)O [valerate] | 0.99
* CC(O)CC(=O)O (stereo not drawn) [beta-hydroxybutyrate] | 1.00
* CC(=O)O [acetate] | 1.00

====

- test.details: Human Regulatory T Cell Differentiation Assay
- Format: cell-based
- test.context: human, primary naïve CD4+ T cells isolated from PBMCs, 10 uM, read-out: Cell viability % DMSO
- Protocol: Peripheral blood mononuclear cells (PBMCs) from whole blood donated by health volunteers were separated by Ficoll-Paque gradient centrifugation and naïve CD4^+ T cells were subsequently isolated using magnet beads (EasySep™ Human Naïve CD4^+ T Cell Isolation Kit, Cambridge, Mass.). […] Cell viability was determined using a viability dye (eBioscience Fixable Viability Dye eFluor 780: ThermoFisher 65-0865-14) at 1:500 dilution. […]
experimental.endpoint: viability at 6 days, 10 µM

• CN(CCOc1ccc(CC2SC(=O)NC2=O)cc1)c1ccccn1 (stereo not shown) = 90 to 110%

====

- System: A-431 skin cancer cells
- test.details: Cancer cell survival (CellTiter-Glo), A-431
- Format: cell-based
- test.context: Homo sapiens; A-431 cells; 101 nM; 72 h; read-out: Cell survival at given concentration
experimental.endpoint: viability at 0.101 µM (%)

- O=c1c(O)c(-c2cc(O)c(O)c(O)c2)oc2cc(O)cc(O)c12: 102
- O=C[C@H](O)[C@@H](O)[C@@H](O)CO: 103
- O=c1cc(-c2ccc(O)cc2)oc2cc(O)cc(O)c12: 101
- O=c1cc(-c2ccc(O)c(O)c2)oc2cc(O)cc(O)c12: 101
- Oc1cc(O)c2c(c1)O[C@H](c1cc(O)c(O)c(O)c1)[C@H](O)C2 [EGC, epigallocatechin]: 103
- Oc1ccc(C=Cc2cc(O)cc(O)c2)cc1: 101

Reference for the values: patent US20210085640A1
